- systemTested: glutathione S-transferase (GST)-fusion human ERK2 protein (Homo sapiens)
- Construct: purchased Carna Biosciences, Inc; host or cells: E. coli expression system
- Sequence (P28482 whole entry, the tested form may be a part): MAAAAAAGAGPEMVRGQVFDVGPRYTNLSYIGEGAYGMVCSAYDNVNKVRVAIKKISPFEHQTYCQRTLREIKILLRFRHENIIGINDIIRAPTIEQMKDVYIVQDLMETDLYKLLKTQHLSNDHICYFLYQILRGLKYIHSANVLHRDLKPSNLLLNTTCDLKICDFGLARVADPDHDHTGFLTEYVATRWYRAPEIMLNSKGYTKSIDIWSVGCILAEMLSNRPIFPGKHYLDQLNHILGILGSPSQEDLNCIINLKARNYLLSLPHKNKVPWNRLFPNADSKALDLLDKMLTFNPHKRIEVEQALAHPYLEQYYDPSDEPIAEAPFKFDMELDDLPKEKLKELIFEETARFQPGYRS
- experimentSummary: ERK2 enzyme assay (LabChip mobility shift)
- Assay type: biochemical
- reportedConditions: IC50 class; 2 nM ERK2, 4.25 μM FL-Peptide 8, 43 μM ATP; read-out: ERK2 Inhibitory Activity
endpoint: IC50

# count of solved cases: 5
{"columns": ["sampleSmiles", "recordedValue"],
 "data": [
  ["COCCn1cc(-c2cnc3ccc(NC(=O)NC4CCCC4)nc3c2)cn1", "< 100 nM"],
  ["O=C1CN(CCn2cc(-c3cnc4ccc(NC(=O)NC5CCCC5)nc4c3)cn2)CCN1", "< 100 nM"],
  ["O=C(NC[C@@H]1CCCO1)Nc1ccc2ncc(-c3cn[nH]c3)cc2n1", "< 100 nM"],
  ["COCCNC(=O)Nc1ccc2ncc(-c3cn[nH]c3)cc2n1", "< 100 nM"],
  ["O=C(NCCc1c[nH]c2ccccc12)Nc1ccc2ncc(-c3cn[nH]c3)cc2n1", "< 100 nM"]
]}

In plain terms, `Cc1n[nH]cc1-c1cnc2ccc(NC(=O)NC3CCCC3)nc2c1` has a documented IC50 of < 100 nM
